- Tested on: SK-MEL-28 melanoma
- assay_summary: NCI tumour cell line growth inhibition, 48 h
Would you mind telling me the reported TGI of each entry?

Lab book: TGI of COc1cc2c(cc1OC)C1c3ccccc3CCN1CCC2 (stereo not given) noted as > 100 µM

Lab book: TGI of O=C(/C=C/c1ccc(OCc2ccccc2)cc1)NCc1ccc(C(=O)NCCc2c[nH]c3ccccc23)cc1 noted as > 100 µM

Lab book: TGI of c1ccc2cc3c(cc2c1)Nc1c2ccccc2nc2cccc-3c12 noted as 3.12 µM

Lab book: TGI of O=C(Nn1c(-c2cccs2)nc2ccc(I)cc2c1=O)c1ccccc1 noted as 53 µM

Lab book: TGI of COc1ccc2c3c([nH]c(=O)c2c1C(=O)O)-c1ccccc1CC3 noted as > 100 µM

Lab book: TGI of NCCCOc1cc2ccccc2cc1C(=O)Nc1ccc(Cl)cc1OC(=O)c1cc2ccccc2cc1OCCCN noted as 0.949 µM

Lab book: TGI of O=C1/C=C/[C@@H](O)[C@@H]2C[C@@H](O)C[C@H]2/C=C/CCC[C@H](CCc2ccc3ncccc3c2)O1 noted as 0.837 µM

Lab book: TGI of COc1ccc(/C(C)=N/NC(=O)CSc2nc3ccccc3c(=O)n2CCc2ccc(S(N)(=O)=O)cc2)cc1 noted as 3.3 µM

Lab book: TGI of N#Cc1ccc(/C=C(/C(=O)c2ccccc2)c2ccccc2)cc1 noted as 32.7 µM

Lab book: TGI of COC(=O)c1cccc2c3ccccc3c3ccccc3c12 noted as > 100 µM

Lab book: TGI of Cc1cccc(C)c1NC(=O)CCC/C(CC(=O)c1ccc(F)cc1)=N\NC(=O)C(=O)NN noted as > 100 µM

Lab book: TGI of Nc1ccccc1C#C/C=C\C#CC#C/C=C\C#Cc1ccccc1N noted as 36.7 µM

Lab book: TGI of C=C1[C@H]2O[C@H]2[C@@H](OC(C)=O)[C@@]2(C)[C@@H](OC(C)=O)C[C@@H](OC(=O)CCC)[C@@](C)(O)[C@@H]2[C@@H](OC(C)=O)[C@]2(O)[C@@H](C)C(=O)O[C@H]2[C@H]1Cl noted as > 100 µM

Lab book: TGI of O=S(=O)(O)c1cc(S(=O)(=O)O)c2cc(N=Nc3c(O)ccc4ccccc34)ccc2c1 noted as > 100 µM

Lab book: TGI of c1ccc(CN2CCc3[nH]c4ccccc4c3C2)cc1 noted as 32.8 µM

Lab book: TGI of Cc1cccc(NC(=O)O/N=C(\Cl)C(C)C)c1 noted as 26.7 µM

Lab book: TGI of CC(C)(C)c1cc2c(c(C(C)(C)C)c1O)CC(=O)O2 noted as > 100 µM

Lab book: TGI of CN(C)CCCNc1ccc2nnn3c4ccc(OC(=O)c5ccccc5)cc4c(=O)c1c23 noted as 30.2 µM

Lab book: TGI of COC(=O)c1cc(OS(=O)(=O)C(F)(F)F)c(=O)n2c1CCCC2 noted as > 100 µM

Lab book: TGI of O=[P+](O)c1ccccn1 noted as > 100 µM
